biological target: PRMT5/MEP50 (Homo sapiens (Human)); assay: PRMT5 Biochemical Assay (PRMT5/MEP50 enzyme assay on peptide substrate, 3H-SAM Flashplate); settings: PRMT5 biochemical assay; read-out: Biochemical IC50
Sequence (O14744 other isoform, or with tags, fused parts or gaps): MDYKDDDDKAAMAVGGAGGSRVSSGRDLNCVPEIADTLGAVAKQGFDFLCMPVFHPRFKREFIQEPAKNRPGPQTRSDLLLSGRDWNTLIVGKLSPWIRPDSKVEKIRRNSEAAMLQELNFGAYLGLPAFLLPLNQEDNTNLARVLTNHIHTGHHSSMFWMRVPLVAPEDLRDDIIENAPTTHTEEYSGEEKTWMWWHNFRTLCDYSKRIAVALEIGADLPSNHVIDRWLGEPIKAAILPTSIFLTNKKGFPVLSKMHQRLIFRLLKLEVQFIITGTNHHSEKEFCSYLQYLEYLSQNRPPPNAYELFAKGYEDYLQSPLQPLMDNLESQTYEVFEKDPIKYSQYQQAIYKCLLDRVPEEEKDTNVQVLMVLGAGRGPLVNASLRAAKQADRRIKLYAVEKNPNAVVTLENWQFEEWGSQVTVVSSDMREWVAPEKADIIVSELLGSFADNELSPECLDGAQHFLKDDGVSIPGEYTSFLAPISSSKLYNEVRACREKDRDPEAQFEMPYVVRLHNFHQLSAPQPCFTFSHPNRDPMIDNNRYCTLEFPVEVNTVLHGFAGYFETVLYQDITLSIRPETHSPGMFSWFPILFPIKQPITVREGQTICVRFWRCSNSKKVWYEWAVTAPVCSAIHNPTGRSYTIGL
Sequence (Q9BQA1 other isoform, or with tags, fused parts or gaps partner): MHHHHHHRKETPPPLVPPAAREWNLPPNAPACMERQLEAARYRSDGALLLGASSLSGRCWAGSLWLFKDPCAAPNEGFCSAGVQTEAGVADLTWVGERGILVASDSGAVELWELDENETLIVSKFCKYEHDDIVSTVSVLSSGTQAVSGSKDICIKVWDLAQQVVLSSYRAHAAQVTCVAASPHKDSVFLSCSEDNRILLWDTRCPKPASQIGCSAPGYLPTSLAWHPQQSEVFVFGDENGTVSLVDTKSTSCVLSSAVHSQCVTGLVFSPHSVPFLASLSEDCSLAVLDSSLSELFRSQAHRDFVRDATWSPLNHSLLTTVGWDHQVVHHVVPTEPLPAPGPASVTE
pIC50: −log10 of the molar value.
Listing of entries alongside the reported pIC50.

Answered examples (10):
Request: Field request: pIC50 | item: Cn1ccnc1CCC(=O)NC[C@H](O)CN1CCc2ccccc2C1
Result: 6.00 to 7.00

Request: Field request: pIC50 | item: O=C(COc1ccccc1N1CCNCC1)NC[C@H](O)CN1CCc2ccccc2C1
Result: > 7.00

Request: Field request: pIC50 | item: CN1CCN(S(=O)(=O)c2ccccc2OCC(=O)NC[C@@H](O)CN2CCc3ccccc3C2)CC1CO (stereo partly shown)
Result: 5.00 to 6.00

Request: Field request: pIC50 | item: O=C(NC[C@H](O)CN1CCc2ccccc2C1)[C@@H]1C[C@@H]2CCCC[C@@H]2N1
Result: 5.00 to 6.00

Request: Field request: pIC50 | item: O=C(CCc1nc2ccccc2[nH]1)NC[C@H](O)CN1CCc2ccccc2C1
Result: > 7.00

Request: Field request: pIC50 | item: O=C(COc1cccc(C(=O)NCCn2ccnc2)c1)NC[C@@H](O)CN1CCc2ccccc2C1
Result: 5.00 to 6.00

Request: Field request: pIC50 | item: CN(C)c1ccc2cccc(OCC(=O)NC[C@@H](O)CN3CCc4ccccc4C3)c2n1
Result: > 7.00

Request: Field request: pIC50 | item: O=C(CC1CCc2ccccc21)NC[C@H](O)CN1CCc2ccccc2C1 (stereo partly shown)
Result: 6.00 to 7.00

Request: Field request: pIC50 | item: O=C(COc1cccc(NC2CCOCC2)c1)NCC(O)CN1CCc2ccccc2C1 (stereo not shown)
Result: > 7.00

Request: Field request: pIC50 | item: O=C(COc1ccccc1C1CCNCC1)NCC(O)CN1CCc2ccccc2C1 (stereo not shown)
Result: > 7.00

Further cases:
Request: Field request: pIC50 | item: O=C(CCc1nc2cc(F)ccc2[nH]1)NC[C@H](O)CN1CCc2ccccc2C1
Result: > 7.00

Request: Field request: pIC50 | item: O=C(COc1ccccc1N1CCNCC1)NC[C@@H](O)CN1CCc2ccccc2C1
Result: 5.00 to 6.00

Request: Field request: pIC50 | item: CC(Oc1ccccc1S(N)(=O)=O)C(=O)NCC(O)CN1CCc2ccccc2C1 (stereo not shown)
Result: < 4.30

Request: Field request: pIC50 | item: CC(Oc1ccccc1[C@H]1CCCNC1)C(=O)NC[C@@H](O)CN1CCc2ccccc2C1 (stereo partly shown)
Result: 5.00 to 6.00

Request: Field request: pIC50 | item: CN(C)c1cccc(OCC(=O)NCC(O)CN2CCc3ccccc3C2)c1 (stereo not shown)
Result: > 7.00

Request: Field request: pIC50 | item: O=C(CCc1cn2ccccc2n1)NC[C@H](O)CN1CCc2ccccc2C1
Result: 6.00 to 7.00

Request: Field request: pIC50 | item: CN1CCCC(c2ccccc2OCC(=O)NCC(O)CN2CCc3ccccc3C2)C1 (stereo not shown)
Result: > 7.00

Request: Field request: pIC50 | item: O=C(NC[C@H](O)CN1CCc2ccccc2C1)C1CCCc2ccccc21 (stereo partly shown)
Result: 5.00 to 6.00
